# testedOn: tankyrase 2 (TNKS2) (Homo sapiens)
# Sequence (Q9H2K2 934-1166): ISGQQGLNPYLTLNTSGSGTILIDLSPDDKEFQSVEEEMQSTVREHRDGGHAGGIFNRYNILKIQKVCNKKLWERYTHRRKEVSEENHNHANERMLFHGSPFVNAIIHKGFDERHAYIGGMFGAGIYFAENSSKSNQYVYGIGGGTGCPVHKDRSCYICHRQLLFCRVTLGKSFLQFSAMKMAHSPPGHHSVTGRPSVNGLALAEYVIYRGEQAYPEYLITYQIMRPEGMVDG
experimentalEndpoint: IC50 (nM)

a = COCCOc1cc(F)c(N2CCN(c3cc4c(cnn4C)c(=O)[nH]3)CC2)c(F)c1
b = Cn1ncc2c(=O)[nH]c(N3CCN(C4CCS(=O)(=O)C4)CC3)nc21 (centres unmarked)
c = Cn1ncc2c(=O)[nH]c(N3CCN(c4cc(O)cc(F)c4F)CC3)nc21
Sort ascending by IC50. I would appreciate it if you listed the labels in the requested order.
a, c, b

A = Cn1ncc2c(=O)[nH]c(N3CCN(CC4CCCO4)CC3)nc21 (centres unmarked)
B = COc1cccnc1N1CCN(c2nc3c(cnn3C)c(=O)[nH]2)CC1
C = Cn1ncc2c(=O)[nH]c(N3CCN(c4c(F)cc([N+](=O)[O-])cc4F)CC3)nc21
D = Cn1ncc2c(=O)[nH]c(N3CCC(C#N)(c4ccc(F)cc4)CC3)nc21
E = Cn1ncc2c(=O)[nH]c(N3CCN(c4nccs4)CC3)nc21
Order these by IC50, descending, and give the full ranking. I would appreciate it if you listed the labels in the requested order.
E, A, B, C, D

1 = Cn1ncc2c(=O)[nH]c(N3CCC(C#N)(c4ccccc4)CC3)nc21
2 = COCCOc1ccc(N2CCN(c3nc4c(cnn4C)c(=O)[nH]3)CC2)c(F)c1
Which of the two gives a bigger number for IC50: 1 or 2 ? Which one? Tell me its label.
2

a = Cn1ncc2c(=O)[nH]c(N3CCN(c4c(Cl)cccc4Cl)CC3)nc21
b = Cn1ncc2c(=O)[nH]c(N3CCN(c4ccc(C(=O)O)cc4F)CC3)nc21
Please compare: a and b . Report which one has the smaller IC50 value. Which one? Tell me its label.
a
(a: 26.3 nM, b: 39.4 nM)

* * *

# System: Wnt stimulated TCF transcriptional activity, HEK293-TS 112 TCF reporter cell line
# testSummary: Tankyrase 1 Assay (Example 119): Wnt3A-stimulated TOPbrite TCF luciferase reporter
# Assay type: cell-based
# conditionParameters: Compounds I-59 to I-144, procedure in Example 119 (0.5 ug/mL Wnt3A, 16 hours); read-out: TNKS1 (IC50)
Known pIC50 of a selection of compounds
Kindly note that pIC50 refers to -log10 of the concentration in mol/L and answer with the value alone.

The following compounds have reported results that may help.
{"structureSmiles": "Cc1c[nH]nc1C1CCN(c2nc3c(cnn3C)c(=O)[nH]2)CC1", "testedOn": "Wnt stimulated TCF transcriptional activity, HEK293-TS 112 TCF reporter cell line", "pIC50": 6.97}
{"structureSmiles": "COCCOc1cc(F)c(N2CCN(c3nc4c(cnn4CCO)c(=O)[nH]3)CC2)c(F)c1", "testedOn": "Wnt stimulated TCF transcriptional activity, HEK293-TS 112 TCF reporter cell line", "pIC50": 6.58}
{"structureSmiles": "CC(C)[C@H](N)C(=O)OCCOc1cc(F)c(N2CCN(c3nc4c(cnn4C)c(=O)[nH]3)CC2)c(F)c1", "testedOn": "Wnt stimulated TCF transcriptional activity, HEK293-TS 112 TCF reporter cell line", "pIC50": 8.38}
{"structureSmiles": "Cn1cc(N2CCN(c3nc4c(cnn4C)c(=O)[nH]3)CC2)cn1", "testedOn": "Wnt stimulated TCF transcriptional activity, HEK293-TS 112 TCF reporter cell line", "pIC50": 7.19}

Consider now this further compound.
What reported pIC50 corresponds to Cn1ncc2c(=O)[nH]c(N3CCN(C4COC4)CC3)nc21 on Wnt stimulated TCF transcriptional activity, HEK293-TS 112 TCF reporter cell line?
6.08
